Provenance of the data: the supplement of paper PMC6555819

System: LXRb homodimer (NR concentration 270 nM)
Assay: PBM binding z-score (relative to random genomic background probes); higher = stronger binding; sequences stand for … in GC…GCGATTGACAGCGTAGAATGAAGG
experimental_readout: PBM binding z-score

For this sequence ( ATACAAAGGTGATCGTGAGGTCGTTGATACTAAC ), measured PBM binding z-score is 0.00532

Noted for TCTAGCAGGCCAGAAGGTCACTCAAGAGGTACGG : its PBM binding z-score reads -0.711

Lookup result for CGAACGAGGGCACGAGTTGATAGCAAATGCCGAT ; measured PBM binding z-score: -0.624

For reference, reported PBM binding z-score for ACTATTAGTAGACTTAGGGCAACCGATACGACGC stands at 0.454

The sequence listed as AATACAGGGTCATCGTAGGCTAGAGTACGCACAG shows PBM binding z-score equal to 1.4

TCTATCAGTTGAAGGGCAACCGACGAGTCCGTTT yielded PBM binding z-score of -0.0897

Reported PBM binding z-score of TCTGCTAGGTCAACGCTGGTCAGCTAATCTGCTA : -0.356

Sample CAAACTAGGTCAAGAGGTCTAAGTCCGCTTCCCG ; PBM binding z-score observed: -0.0852

GET /value?item= TCATATAGGTAATCCAGGTGAAAGTCGGCATCTA &field=PBM binding z-score returns 0.397

PBM binding z-score reading for TAACCTAGGTCATTGGGCCAGTATAGTACGCATC : 0.934

Form: sequence = TTTTGTAGATCAATAGAGGTTAAGAAAGTGCGCT ; PBM binding z-score = 0.26

PBM binding z-score measured on ATACCAAGGTGATCGTGAGGTGGTTGATACTAAC = 0.00305

PBM binding z-score in this record for ATATGTAGGTTATCGGGTCCTTCAGTTTGCGCAT : 0.389

The value of PBM binding z-score measured for the sequence CCTACTGGGCCATTCAGAGATCATTGATCATATG turned out to be -0.653

Recorded PBM binding z-score (sequence CGAACTAGGGCAAGGACAGTGAATCTCCGCACGC ): -0.814

// PBM binding z-score value for CCTACTGGGCCAAAGGTCATTGAATCCAATGCTC : 0.849

The measured PBM binding z-score associated with GGAACGAGGGCAAAGTTGATAGGATCTGTCGACG reads -0.537

Documented PBM binding z-score of CAAACTAGGTCAAGAGGTCAAAGCCCGCTTCCCG : 1.5

Consider GCTATTAGTTGAGAGGGCAACCGAATGATTCTCG . Its measured PBM binding z-score is -0.23

TCTGGTAGATCAAGCAGGTTAAGAAAGCCTGAGT has a reported PBM binding z-score of -1.25

Form field PBM binding z-score, entry CCTACTCGGCCATTCAGAGGTCATTGATCATATG : 1.6

Just so you know, measured PBM binding z-score for TCGAGTAGGTTAGGGGCATTGAGAATGGCGTCGA came out at -0.13

The sequence listed as CCGACTGGGGCATAGGTTACCATACTCAGTACGA shows PBM binding z-score equal to -1.1

Lab book: PBM binding z-score of CCTGCTAGGTTAATGGTCAGCTAAAGCAGCTCGC noted as -0.231

// PBM binding z-score lookup, sequence = AGAACGAGGGCACGCTGAGTTGACAGCAGAGTAG , result: -1.2

Lab book: PBM binding z-score of ACTAGCAGGCCAAGTTTAGGTCACTCAAACAAAG noted as -0.282

Value of measured PBM binding z-score for the entry CAAACTAGATCAAGGTCAAAGTCGGTTTGTGCCA : 0.973

sequence TCCTATAGGTAAACAGGTGAAAGTCCGTAAGTTA , PBM binding z-score observed: -0.235

Lab note: TGAATGCGGTTAAAGATCAGGGAACGTGGCGTCG gave PBM binding z-score of -0.199

Sample CCTACTGGGCCAAAAAGGTGATTGATGCCGATAA ; PBM binding z-score observed: -0.963

The recorded PBM binding z-score for CCTTACGGGTCAAGGTTATAGTACGGGTGGTACG is 0.225

The recorded PBM binding z-score for entry AGAATGAGGTTTTTAAGATCAGGGAATTGCGGTC equals -0.216

====

Tested on: PPARg:RXRa 270nM:90nM, anti-RXR (NR concentration 270 nM, RXRa partner concentration 90 nM)
Experiment: PBM binding z-score (relative to random genomic background probes); higher = stronger binding; sequences stand for … in GC…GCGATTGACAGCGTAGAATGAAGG
Record form. Attribute: PBM binding z-score. Fill in for each entry.
# print the numeric value only

Note to self: PBM binding z-score recorded for TCTAATAGTTGATTAGGGCAACCGAAACAGCGGA was 1.85

Record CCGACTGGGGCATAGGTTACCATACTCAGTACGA , field PBM binding z-score: 7.34

The recorded PBM binding z-score for entry ATCTCTAGGTAACAAGTTCAGTAAAAGAGAGGAC equals 2.11

In plain terms, TCATATAGGTAAATGCTAGGTGAGAGTCCGATCT has a documented PBM binding z-score of 1.86

The sequence TTACCAAGGTGAAGGTCGCTGATCCCTCTGTAGA showed PBM binding z-score equal to 4.12

sequence ATATGTAGGTTACATCCGGGTCATTAAGGCTATG , PBM binding z-score observed: 5.08

Memo: CTACCATGGTGAACAAGGTCGTTGATTACTATTC , reported PBM binding z-score: 0.378

Value of PBM binding z-score reported for the sequence CGTTCAAGGTCAATGCTAGGTCAGTGAAAGCATT is 5.15

# sequence CGAACTAGGTCACAACAGGACAGTGAAGGATGAT ; its PBM binding z-score = 6.57

Recorded PBM binding z-score (sequence GCTCGGAGGACACGGTCAGAGCTTTGTCCGTAGA ): -0.893

Measured PBM binding z-score, CTCGAAAGGTCGTGCACAGGTGAGTATACCAAAC : 4.58

PBM binding z-score recorded for this sequence, TCATATAGGTAAATGCTAGGTGATAGTCCGATCT , is 2.24

Recorded result, TCTAGTAGTTGATTAGGGCAACCGAAACAGCGGA , PBM binding z-score: 1.41

Sure, the documented PBM binding z-score for ACTCAAAGTTCACTAGGTAACGTAAGATTCAGCT is 5.21

====

Tested on: RARg:RXRa (NR concentration 270 nM, RXRa partner concentration 90 nM)
Assay: PBM binding z-score (relative to random genomic background probes); higher = stronger binding; sequences stand for … in GC…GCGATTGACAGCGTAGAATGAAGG
Grouping key: PBM binding z-score. Bins: low group: < 2; middle group: ≥ 2 and < 3; high group: ≥ 3

Req: Which class is correct for the following sequence? CGTCCAAGTTCATAGGAGGTCAGTGAAGACAGAT
Resp: high group

Req: Sort into band: TCTTGTAGATCAACATGAGGTTAAGAAAGATCGA
Resp: low group

Req: Which category does the recorded PBM binding z-score put CAAACTAGGTCATGAAAGGTCAAAGTCGAATGAC in?
Resp: high group

Req: Consider CAGCCTGGGTCAGGGCCAGTATAGGAGGAACGTT . To which PBM binding z-score class does it belong?
Resp: middle group

Req: Record CCCGAAAGGTCGTGCTCAGGTGAGTATACCAAAC — which class?
Resp: high group

Req: Lab note: which band did TCAGATAGGTAATACAGGTGAAAGTCGGCATCTA land in?
Resp: low group

Req: Which of the defined bands does the recorded PBM binding z-score of ATCTCTAGGTAATACTCAGTTCAGTGAAGAACGC sit within?
Resp: low group

Req: Quick check: band for TCTCGGAGGACACGCAAGGTCAGAGCTCGACATC
Resp: high group

Req: Class label required: GGAACGAGGGCCAGTTGATAGCAGAGTTTGATGG
Resp: low group

Req: Dear colleague, I would appreciate it if you could identify the bin for CCTGCTGGGTCAATGGTCAGCTAAAGCAGCTCGC and reply at your convenience.
Resp: high group

Req: Kindly state the category for this sequence: TCGAGTAGGTTACCCATGGGGCATTCAGCTTTCT
Resp: low group

Req: Lab note: sort CCGGCTGGGGCATAAGGTTACCATAAGCCAGCCC into the matching PBM binding z-score band.
Resp: low group

Req: In plain terms, what class is TGGATGAGGTTATAAGATCAGGGAACGTTGCAAA ?
Resp: low group

Req: Category of CCTGCTAGGTCATGGTCAACTAATCTACAGTATG :
Resp: high group

Req: Looking at ACTAGTAGGCCAAGTTTGGGTCACTCAAACAAAG , which class would you pick?
Resp: middle group

Req: # bin label for TAGACTAGGTCAGATCGGGCCAGTATACGCTATA
Resp: middle group

Req: Assign a bin to ACTTACGGGTCAACGAGGTAATAGCACGCGTATA
Resp: high group

Req: Pick a category. Item: TCATTTAGGTAAAAGGTGAAAGTCGGTGTGGTAA
Resp: low group
